Measured growth accompanies every entry in the list below.
System: A549/ATCC NSCLC
PROCEDURE SUMMARY: NCI-60 one-dose screen, 48 h (100 = growth as untreated, 0 = no growth, -100 = all killed)
MEASUREMENT CONTEXT: 10 µM unless noted
Experimental: Growth inhibition of the A549/ATCC human Non-Small Cell Lung tumor cell line is measured as a screen for anti-cancer activity. Cells are grown in 96 well plates and exposed to the test compound for 48 hours. Compounds are tested at a single concentration, which is 10^-5 M for most compounds. The reported endpoint is percent growth (GI% or GIPRCNT), where numbers from 0 - 100% represent growth inhibition, and numbers from -100% - 0 represent cell death. […]
Compounds without any hit were thinned out: in the full panel of roughly 83,000, 20% have a hit.
Value expressed in %; do not type the unit.

O=C(CCCCCCCC(=O)N1CCCCC1)N1CCCCC1; 102

# input Which growth is listed for COc1ccc2c(c1)CC[C@@H]1[C@@H]2CC[C@]2(C)c3c(cc(C#N)c4c3sc3ccccc34)C[C@@H]12 ?
# output 106

# input Which growth is listed for COC(=O)c1c(C)nc(C)c2c1C(=O)C=C(NCc1ccccc1)C2=O ?
# output 103

# input Which growth is listed for N#Cc1c(-c2ccccc2)nc2c(c(-c3ccccc3)nn2-c2ccccc2)c1-c1ccc(N2CCCCC2)cc1 ?
# output 87.9

# input Which growth is listed for O=CN1N=C(c2cccc(Nc3ccnc4cc(Cl)ccc34)c2)CC1c1ccc(Cl)cc1 (stereo not given) ?
# output 34.3

# input Which growth is listed for C/C=C1/CN(CCCCC)CC[C@H]1C(=O)c1cc2ccccc2[nH]1 ?
# output 100

# input Which growth is listed for CS(=O)(=O)Nc1cc(-c2ccc3ncnc(Nc4ccc(F)c(Cl)c4)c3c2)ccc1Cl ?
# output 31.6

# input Which growth is listed for Cc1nc2ccccc2c(/C=C/c2ccc(F)cc2)c1C(=O)/C=C/c1ccccc1 ?
# output 25

# input Which growth is listed for Cn1cc(-c2nc3c(F)cc4[nH]ncc4c3c3c2CCCC3)c(C(F)(F)F)n1 ?
# output 17.3

# input Which growth is listed for CN(C)c1ccc(/C=C2\C=C(c3nc4ccccc4s3)OC2=O)cc1 ?
# output 94.7

# input Which growth is listed for CN(C)/C(N)=N/N=C(\c1ccccc1)c1ccccn1 ?
# output 107

# input Which growth is listed for CN(C)CCn1c(=O)c2ccccc2n2nc3ccccc3c12 ?
# output 61.2

# input Which growth is listed for Oc1ccc(-c2nc3ccc4[nH]ncc4c3c3c2CCCC3)c(F)c1 ?
# output 15.7

# input Which growth is listed for CNC(=O)c1cc(Oc2ccc3c(c2)sc2nc(-c4ccc(NC(=O)[C@@H](NC(=O)OC)C(C)C)cc4)cn23)ccn1 ?
# output 80.8

# input Which growth is listed for COc1cc(/C=C/C(=O)c2cccc(-n3cc(-c4ccc(Cl)cc4)[nH]c3=O)c2)ccc1O ?
# output 77.3

# input Which growth is listed for CCCOC(=O)Nc1nc2ccc(SCC)cc2s1 ?
# output 80.5

# input Which growth is listed for C[C@H](c1nc2ccc(C#N)cc2[nH]1)[C@H]1CC[C@H]2[C@@H]3CCC4=CC(=O)CC[C@]4(C)[C@H]3CC[C@]12C ?
# output 63.9

# input Which growth is listed for C=CCN=c1sc(-c2ccc3ccccc3c2)cn1NC(=O)c1cc2ccc1CCc1ccc(cc1)CC2 ?
# output 56.1

# input Which growth is listed for O=C(NN1C(=O)CSC1c1cccc([N+](=O)[O-])c1)c1ccc(NC(=O)c2ccccn2)cc1 (stereo not given) ?
# output 100

# input Which growth is listed for CCCCn1c(NC(C)=O)c(S(=O)(=O)c2ccccc2)c2nc3ccccc3nc21 ?
# output 97.1
